Give measured koff for each item. Keep answers brief.
Molecular target: T1, human serum albumin (human, UniProt P02768 25-609)
T1 construct: Bought protein, immobilized on a CM5 chip by amine coupling; also called Human SA
Assay: SPR (Biacore 8K), albumin immobilized on CM5 chip, 25 C, 1:1 kinetic fit
Be sure to follow the number with its unit.

Which koff reading was recorded for the binder RLN Analog 7 (other, Single-chain fusion: VHH - (G4Q)5 L1 - RLN2 B chain (desB1) - L2 - RLN2 A chain) EVQLLESGGGLVQPGGSLRLSCAASGRYIDETAVAWFRQAPGKGREFVAGIGGGVDITYYADSVKGRFTISRDNSKNTLYLQMNSLRPEDTAVYYCAARPGRPLITSKVADLYPYWGQGTLVTVSSGGGGQGGGGQGGGGQGGGGQGGGGQSWMEEVIKLCGRELVRAQIAICGMSTWSGGGSGGSGGGQLYSALANKCCHVGCTKRSLARFC ?
0.00012 s⁻¹

Which koff reading was recorded for the binder RLN Analog 14 (other, Single-chain fusion: VHH - (PGPQ)8 L1 - RLN2 A chain (desA1-4) - L2 - RLN2 B chain (desB1)) EVQLLESGGGLVQPGGSLRLSCAASGRYIDETAVAWFRQAPGKGREFVAGIGGGVDITYYADSVKGRFTISRDNSKNTLYLQMNSLRPEDTAVYYCAARPGRPLITSKVADLYPYWGQGTLVTVSSPGPQPGPQPGPQPGPQPGPQPGPQPGPQPGPQALANKCCHVGCTKRSLARFCGGGSGGSGGGSWMEEVIKLCGRELVRAQIAICGMSTWS ?
0.00019 s⁻¹

Which koff reading was recorded for the binder RLN Analog 4 (other, Single-chain fusion: VHH - (PGPQ)8 L1 - RLN2 B chain (desB1) - L2 - RLN2 A chain) EVQLLESGGGLVQPGGSLRLSCAASGRYIDETAVAWFRQAPGKEREFVAGIGGGVDITYYADSVKGRFTISRDNSKNTLYLQMNSLRPEDTAVYYCAARPGRPLITSKVADLYPYWGQGTLVTVSSPGPQPGPQPGPQPGPQPGPQPGPQPGPQPGPQSWMEEVIKLCGRELVRAQIAICGMSTWSGGGSGGSGGGQLYSALANKCCHVGCTKRSLARFC ?
0.00011 s⁻¹
